The reported measurements were obtained from patent US20240207421A1.

Target: Laminin 421/521
Experiment: phage display, NGS count
Readout name: Count

Input line: // Count lookup, key: "GDLLLKR"
Output line: 47

Input line: Please do the same for "GSLDMGNNKQPV" as well.
Output line: 62

Input line: Please do the same for "IDLSLRS" as well.
Output line: 29

Input line: Please do the same for "CQTSGHHQC" as well.
Output line: 31
